Target: human IL12Rβ1, cell-expressed (human, UniProt P42701 24-662)
Assay: cell-based or functional assay
IC50, IL-17 release, PBMC D840 less than 40 nM is Criterion met; IC50, IL-17 release, PBMC D840 greater than or equal to 40 nM is Criterion not met.

Binder: IL12Rb1#31: 148F09 (VHH, also called IL12Rβ1#31; LG148F09) VHH: EVQLVESGGGLVQTGGSLRLSCAASGRTPSIIAMGWFRQTPGKEREFVGEIILSKGFTYYADSVKGRFTISRANAKNTITMYLQMNSLKSEDTAVYYCAARQNWSGNPTRTNEYEYWGQGTLVTVSS
Classification: Criterion not met
//
Binder: IL12Rb1#30-35GS-CD4#8 (bispecific antibody, also called BI#46; T023200046) EVQLVESGGGLVQTGGSLRLSCAASGRTPRLVAMGWFRQTPGKEREFVGEIILSKGFTYYADSVKGRFTISRVNAKNTITMYLQMNSLKSEDTAVYYCAGRQNWSGSPARTNEYEYWGQGTLVTVSSGGGGSGGGGSGGGGSGGGGSGGGGSGGGGSGGGGSEVQLVESGGGSVQPGGSLTLSCGTSGRTFNVMGWFRQAPGKEREFVAAVRWSSTGIYYTQYADSVKSRFTISRDNAKNTVYLEMNSLKPEDTAVYYCAADTYNSNPARWDGYDFRGQGTLVTVSS
Classification: Criterion met
//
Binder: IL12Rb1#30: 148C09 (VHH, also called IL12Rβ1#30; LG148C09) VHH: EVQLVESGGGLVQTGGSLRLSCAASGRTPRLVAMGWFRQTPGKEREFVGEIILSKGFTYYADSVKGRFTISRVNAKNTITMYLQMNSLKSEDTAVYYCAGRQNWSGSPARTNEYEYWGQGTLVTVSS
Classification: Criterion met
//
Binder: CD4#8-35GS-IL12Rb1#31 (bispecific antibody, also called BI#41; T023200041) EVQLVESGGGSVQPGGSLTLSCGTSGRTFNVMGWFRQAPGKEREFVAAVRWSSTGIYYTQYADSVKSRFTISRDNAKNTVYLEMNSLKPEDTAVYYCAADTYNSNPARWDGYDFRGQGTLVTVSSGGGGSGGGGSGGGGSGGGGSGGGGSGGGGSGGGGSEVQLVESGGGLVQTGGSLRLSCAASGRTPSIIAMGWFRQTPGKEREFVGEIILSKGFTYYADSVKGRFTISRANAKNTITMYLQMNSLKSEDTAVYYCAARQNWSGNPTRTNEYEYWGQGTLVTVSS
Classification: Criterion met
//
Binder: CD4#8-35GS-IL12Rb1#30 (bispecific antibody, also called BI#40; T023200040) EVQLVESGGGSVQPGGSLTLSCGTSGRTFNVMGWFRQAPGKEREFVAAVRWSSTGIYYTQYADSVKSRFTISRDNAKNTVYLEMNSLKPEDTAVYYCAADTYNSNPARWDGYDFRGQGTLVTVSSGGGGSGGGGSGGGGSGGGGSGGGGSGGGGSGGGGSEVQLVESGGGLVQTGGSLRLSCAASGRTPRLVAMGWFRQTPGKEREFVGEIILSKGFTYYADSVKGRFTISRVNAKNTITMYLQMNSLKSEDTAVYYCAGRQNWSGSPARTNEYEYWGQGTLVTVSS
Classification: Criterion met
//
Binder: IL12Rb1#31-35GS-CD4#8 (bispecific antibody, also called BI#47; T023200047) EVQLVESGGGLVQTGGSLRLSCAASGRTPSIIAMGWFRQTPGKEREFVGEIILSKGFTYYADSVKGRFTISRANAKNTITMYLQMNSLKSEDTAVYYCAARQNWSGNPTRTNEYEYWGQGTLVTVSSGGGGSGGGGSGGGGSGGGGSGGGGSGGGGSGGGGSEVQLVESGGGSVQPGGSLTLSCGTSGRTFNVMGWFRQAPGKEREFVAAVRWSSTGIYYTQYADSVKSRFTISRDNAKNTVYLEMNSLKPEDTAVYYCAADTYNSNPARWDGYDFRGQGTLVTVSS
Classification: Criterion met
